// data source = patent US7405211B2

Listed below: IC50 values for each entry.
System: PI 3-kinase immunoprecipitated from human platelets
EXPERIMENT_SUMMARY: In vitro PI 3-kinase assay (32P incorporation into PI)
Format: biochemical
CONDITIONS: PI 3-kinase from human platelets, PI substrate
Supply the numeric figure in nM, leaving out any unit text.

Example cases with answers are listed next.
> print(dat)
                                   compound  measured.attribute  measurement.units  recorded.value
1  Cc1cc(NCc2ccc(Cl)cc2)c2nc(N3CCOCC3)cc(=O)n2c1 [TGX-108]                IC50                 nM            1000
2  Cc1cc(N[C@@H](C)c2ccccc2)c2nc(N3CCOCC3)cc(=O)n2c1 [TGX-124]                IC50                 nM            1000
3  Cc1ccc(Oc2cc(C)cn3c(=O)cc(N4CCOCC4)nc23)cc1 [TGX-109]                IC50                 nM            1000
4  Cc1ccccc1-c1cccc2c(=O)cc(N3CCOCC3)oc12 [TGX-145]                IC50                 nM            2000
5  Cc1cc(NCc2ccncc2)c2nc(N3CCOCC3)cc(=O)n2c1 [TGX-112]                IC50                 nM             500

Give its IC50 value. Item: Cc1cc(Cl)ccc1Oc1cccc2c(=O)cc(N3CCOCC3)[nH]c12 [TGX-180] 1000

###

Test system: PI 3-kinase immunoprecipitated from human platelets
EXPERIMENT_SUMMARY: In vitro PI 3-kinase assay (32P incorporation into PI)
Format: biochemical
CONDITIONS: PI 3-kinase from human platelets, PI substrate
MEASURED_ATTRIBUTE: IC50 (nM)
Supply the numeric figure in nM, leaving out any unit text.

Give its IC50 value. Item: O=c1cc(N2CCOCC2)[nH]c2c(Cc3ccccc3)cccc12 [TGX-57, 8-Benzyl-2-morpholinoquinolone] 2000

Give its IC50 value. Item: Cc1cc(Nc2ccncc2)c2nc(N3CCOCC3)cc(=O)n2c1 [TGX-120] 1000

###

Test system: PI 3-kinase immunoprecipitated from human platelets
EXPERIMENT_SUMMARY: In vitro PI 3-kinase assay (32P incorporation into PI)
Type: biochemical
CONDITIONS: PI 3-kinase from human platelets, PI substrate
Threshold 100 nM. IC50 below it: 1. IC50 at it or above: 0.

Example entries begin here.
> print(dat)
                                   molecule                          target.or.system  cat
1  O=c1cc(N2CCOCC2)nc2c(Oc3ccccc3)cccn12 [TGX-141]  PI 3-kinase immunoprecipitated from human platelets    0
2  Cc1cc(F)ccc1Oc1cccc2c(=O)cc(N3CCOCC3)[nH]c12 [TGX-155]  PI 3-kinase immunoprecipitated from human platelets    1
3  Cc1cc(N[C@H](C)c2ccccc2)c2nc(N3CCOCC3)cc(=O)n2c1 [TGX-123]  PI 3-kinase immunoprecipitated from human platelets    0
4  Cc1ccc(Cc2cccc3c(=O)cc(N4CCOCC4)[nH]c23)cc1 [TGX-106]  PI 3-kinase immunoprecipitated from human platelets    0

For O=C(O)c1cccc(Oc2cccc3c(=O)cc(N4CCOCC4)[nH]c23)c1 [TGX-151] , is the recorded IC50 below the cut-off of 100 nM? 0

###

Listed below: IC50 values for each entry.
Tested on: PI 3-kinase immunoprecipitated from human platelets
EXPERIMENT_SUMMARY: In vitro PI 3-kinase assay (32P incorporation into PI)
Format: biochemical
CONDITIONS: PI 3-kinase from human platelets, PI substrate
Supply the numeric figure in nM, leaving out any unit text.

> print(dat)
                                   molecule  measured.attribute  recorded.value
1  O=c1cc(N2CCOCC2)oc2c(OCc3ccccc3)cccc12 [TGX-102]                IC50             100

Next:
Give its IC50 value. Item: Cc1cc(Nc2ccc(O)cc2C)c2nc(N3CCOCC3)cc(=O)n2c1 [TGX-174] 100
